Target: T1, JARID1A PHD3 domain (for ITC)
T1 construct: JARID1A (KDM5A), PHD3 domain; cleavage of the tag is told only for JMJD2A, SGF29 and TAF3; also called PHD zinc finger of JARID1A; source: E. coli Rosetta BL21 DE3 pLysS, purified (Ni-NTA or glutathione sepharose beads, Superdex 75)
Experiment: ITC; 350–600 μM H3K4me3 or H3C4me3 peptide titrated to 25–40 μM protein (JMJD2A–H3C4me3: 3 mM peptide to 200 μM JMJD2A); 19 injections; Microcal Auto-iTC200; one set of sites model; 5–7 repeats
Details: both partners purified
metric: Kd (nM)
Numeric only. Scale: nM

Task item: Which Kd reading was recorded for the binder ARTXQTARKS (Cme3 (neutral carba analogue of trimethyllysine, tert-butyl in place of trimethylammonium) at position 4; carboxylic acid at the C terminus) [10-mer H3C4me3 histone peptide] ?
Reply: 340

# credit: paper PMC4673829
